System: Echinochloa crus-galli (ECHCG)
test.details: Glasshouse assay for herbicidal activity (pre- and post-emergence), percentage phytotoxicity
Assay type: in vivo
experimental.parameters: Echinochloa crus-galli, post-emergence, 360 h, Rate 250 g/ha; post-emergence; visual assessment 15 DAA; 100%=total damage, 0%=no damage; read-out: Post-emergence herbicidal activity (percentage phytotoxicity) ECHCG POST
Recorded measurements of pest or weed control at 250 g/ha, one per entry
Answer in %, number only, no unit symbol.

Examples from the recorded data:
Cc1cc(-c2ncc(F)cn2)cc(Cl)c1C1C(=O)CC(CC(=O)NC(C)(C)C)C1=O (stereo not drawn) :: 100
Cc1cc(-c2ccc(F)cn2)cc(C)c1C1C(=O)CC(CC(=O)NCc2cccc(F)c2)C1=O (stereo not drawn) :: 90
Cc1cc(-c2ncc(Cl)cn2)cc(C)c1C1C(=O)CC(CC(=O)NCc2cccc(F)c2)C1=O (stereo not drawn) :: 100

Tested on Echinochloa crus-galli (ECHCG), the item Cc1cc(-c2ccc(F)cn2)cc(C)c1C1C(=O)CC(CC(=O)NCc2cccc(Br)c2)C1=O (stereo not drawn) showed pest or weed control at 250 g/ha equal to 40

Tested on Echinochloa crus-galli (ECHCG), the item Cc1cc(-c2ncc(Cl)cn2)cc(C)c1C1C(=O)CC(CC(=O)NCC2CC2)C1=O (stereo not drawn) showed pest or weed control at 250 g/ha equal to 100

Tested on Echinochloa crus-galli (ECHCG), the item COCC(C)NC(=O)CC1CC(=O)C(c2c(C)cc(-c3ccc(F)cn3)cc2C)C1=O (stereo not drawn) showed pest or weed control at 250 g/ha equal to 100
